B1: CPEB3 Ribozyme (parent)
chain: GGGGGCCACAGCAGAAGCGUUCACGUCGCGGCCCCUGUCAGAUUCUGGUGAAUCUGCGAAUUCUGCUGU

variants of: B1; experiment: self-cleavage, relative activity (ratio to wild type); higher = more cleavage; co-transcriptional
Criterion: self-cleavage meeting or surpassing 0.9. Met: label 1. Not met: label 0.

Does self-cleavage meet or surpass 0.9 for U49A U53G ? label 1

Also check C24A U44C label 0

Also check G47A C54G label 1

Also check U26A U36G label 0

Also check C22A G56A label 0

Also check A51C A60G label 0

Also check C32A U64G label 0

Also check G56C U62A label 0

Also check C29U U43C label 0

Also check A10U G58U label 1
